Target: IKZF2 (Homo sapiens, UniProt Q96SW2+Q9UKS7)
Construct: endogenous in cells; host or cells: MOLT4 (CRISPR/Cas9 HiBit knock-in at the IKZF2 locus)
Sequence (Q9UKS7 whole entry): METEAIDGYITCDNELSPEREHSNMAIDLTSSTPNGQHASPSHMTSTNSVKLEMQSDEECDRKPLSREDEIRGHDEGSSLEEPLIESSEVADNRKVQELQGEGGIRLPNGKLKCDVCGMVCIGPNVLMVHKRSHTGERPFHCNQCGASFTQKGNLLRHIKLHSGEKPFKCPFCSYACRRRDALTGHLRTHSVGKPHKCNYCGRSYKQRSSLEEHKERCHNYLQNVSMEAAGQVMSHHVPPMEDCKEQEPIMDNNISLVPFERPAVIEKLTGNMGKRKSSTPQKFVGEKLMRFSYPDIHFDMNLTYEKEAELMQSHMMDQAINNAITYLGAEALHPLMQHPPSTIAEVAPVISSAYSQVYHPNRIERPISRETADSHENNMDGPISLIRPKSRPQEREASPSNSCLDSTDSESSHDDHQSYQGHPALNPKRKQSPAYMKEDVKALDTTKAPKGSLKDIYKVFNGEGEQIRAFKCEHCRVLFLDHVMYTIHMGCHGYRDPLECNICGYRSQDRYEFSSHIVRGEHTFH
Sequence (Q96SW2 whole entry): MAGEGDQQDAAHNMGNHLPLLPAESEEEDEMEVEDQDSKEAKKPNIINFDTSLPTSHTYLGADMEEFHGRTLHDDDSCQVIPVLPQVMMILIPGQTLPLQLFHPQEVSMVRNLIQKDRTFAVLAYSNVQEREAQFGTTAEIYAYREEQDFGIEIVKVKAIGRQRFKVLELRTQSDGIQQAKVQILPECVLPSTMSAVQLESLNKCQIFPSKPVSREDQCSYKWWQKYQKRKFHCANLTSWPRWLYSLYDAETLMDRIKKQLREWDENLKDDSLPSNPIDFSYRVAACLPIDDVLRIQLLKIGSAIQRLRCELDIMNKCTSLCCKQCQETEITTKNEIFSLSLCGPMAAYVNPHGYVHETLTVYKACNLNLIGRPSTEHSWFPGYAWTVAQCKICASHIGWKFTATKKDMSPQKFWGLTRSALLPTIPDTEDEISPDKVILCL
Sequence (Q16531 whole entry partner): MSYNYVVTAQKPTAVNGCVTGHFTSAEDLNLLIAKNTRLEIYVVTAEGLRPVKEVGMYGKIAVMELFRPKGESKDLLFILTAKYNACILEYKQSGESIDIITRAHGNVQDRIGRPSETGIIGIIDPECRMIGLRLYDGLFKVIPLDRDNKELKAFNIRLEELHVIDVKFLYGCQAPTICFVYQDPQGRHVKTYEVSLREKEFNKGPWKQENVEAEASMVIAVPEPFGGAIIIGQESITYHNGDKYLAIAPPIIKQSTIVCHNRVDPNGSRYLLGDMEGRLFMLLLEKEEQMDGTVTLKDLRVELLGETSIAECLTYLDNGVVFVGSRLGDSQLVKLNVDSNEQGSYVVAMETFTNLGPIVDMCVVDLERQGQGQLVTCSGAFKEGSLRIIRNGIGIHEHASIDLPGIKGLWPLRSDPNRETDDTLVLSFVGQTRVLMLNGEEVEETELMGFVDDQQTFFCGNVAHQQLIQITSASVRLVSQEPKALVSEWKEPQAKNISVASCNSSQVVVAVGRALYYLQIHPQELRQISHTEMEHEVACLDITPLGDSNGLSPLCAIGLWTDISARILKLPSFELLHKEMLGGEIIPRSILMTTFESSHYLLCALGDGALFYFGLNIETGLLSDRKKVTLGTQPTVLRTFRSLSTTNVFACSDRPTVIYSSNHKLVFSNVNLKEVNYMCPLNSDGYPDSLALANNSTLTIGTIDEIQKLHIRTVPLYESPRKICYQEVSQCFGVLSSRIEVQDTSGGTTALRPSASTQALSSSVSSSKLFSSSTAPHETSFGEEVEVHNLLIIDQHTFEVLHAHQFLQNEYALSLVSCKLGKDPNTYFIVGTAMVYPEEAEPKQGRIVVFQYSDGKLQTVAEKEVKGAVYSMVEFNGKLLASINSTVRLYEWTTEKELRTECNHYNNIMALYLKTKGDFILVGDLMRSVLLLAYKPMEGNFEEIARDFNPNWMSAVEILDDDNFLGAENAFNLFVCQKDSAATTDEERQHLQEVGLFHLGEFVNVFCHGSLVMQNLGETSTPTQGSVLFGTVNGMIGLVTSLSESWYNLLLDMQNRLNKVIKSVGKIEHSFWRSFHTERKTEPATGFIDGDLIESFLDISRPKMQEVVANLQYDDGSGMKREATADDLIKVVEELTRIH
Assay: MOLT4 IKZF2 HiBit assay
Format: cell-based
Details: MOLT4 IKZF2 HiBit cells, 6 hours incubation, 10-point dose response from 30 μM
Procedure: MOLT4 IKZF2 HiBit Assay Protocol: This protocol used MOLT4 cells that were engineered using CRISPR/Cas9-mediated genomic insertion of HiBit, tagged to the N terminus of the IKZF2 coding sequence. Day 1. A 10-point dose response was created starting from 30 μM down to InM using a Tecan D300e. […] Finally, luminescence signal was read using a BMG Labtech PHERAstar FSX. […] The extent of degradation (range of luminescence) from the highest to lowest concentration points was calculated to determine Dmax.
Counter-ions that a name gives are not always drawn.
measure.name: DC50 (nM)
The reply should be a number in nM, with the unit left off.

Consider the compound O=C1CCC(N2C(=O)c3ccc(C4(O)CCN(Cc5ccc6ncn(-c7cccnc7)c(=O)c6c5)CC4)cc3C2=O)C(=O)N1 (stereo not drawn) [Compound 99, formic acid salt] and give its measured DC50.
1

New cases:
Consider the compound O=C1CCC(N2C(=O)c3ccc(C4(O)CCN(Cc5coc(-c6ccccc6)n5)CC4)cc3C2=O)C(=O)N1 (stereo not drawn) [Compound 91, HCl salt] and give its measured DC50.
21

Consider the compound COC[C@H]1CC[C@H](CN2CCC(O)(c3ccc4c(c3)C(=O)N(C3CCC(=O)NC3=O)C4=O)CC2)CC1 (stereo partly drawn) and give its measured DC50.
8.3

Consider the compound Cn1ccc2cc(CN3CCC(O)(c4ccc5c(c4)C(=O)N(C4CCC(=O)NC4=O)C5=O)CC3)ccc21 (stereo not drawn) [Compound 141, HCl salt] and give its measured DC50.
11

Consider the compound CC(c1ccccc1)N1CCC(O)(c2ccc3c(c2)C(=O)N(C2CCC(=O)NC2=O)C3=O)CC1 (stereo not drawn) [Compound 35, HCl salt] and give its measured DC50.
4

Consider the compound COCc1ccc(CN2CCC(O)(c3ccc4c(c3)C(=O)N(C3CCC(=O)NC3=O)C4=O)CC2)cc1 (stereo not drawn) [Compound 61, HCl salt] and give its measured DC50.
5

----------
target: IKZF2 (Homo sapiens, UniProt Q96SW2+Q9UKS7); construct: endogenous in cells; host or cells: MOLT4 (CRISPR/Cas9 HiBit knock-in at the IKZF2 locus); experiment: MOLT4 IKZF2 HiBit assay; assay type: cell-based; details: MOLT-4; MOLT4 IKZF2 HiBit cells, 30 μM, 6 hr (Dmax); read-out: % reduction of IKZF2 @ 30 μM (6 hr)
Where a name gives a salt, the structure may show the parent alone.
measure.name: Dmax at 30 µM (%)
The reply should be a number in %, with the unit left off.

Illustrative cases are given below, each with its answer.
Consider the compound O=C1CCC(N2C(=O)c3ccc(C4(O)CCN(CC(O)c5ccccc5)CC4)cc3C2=O)C(=O)N1 (stereo not shown) [Compound 149] and give its measured Dmax at 30 µM.
76

Consider the compound O=C1CCC(N2C(=O)c3ccc(C4(O)CCN(Cc5ccccc5)CC4)c(F)c3C2=O)C(=O)N1 (stereo not shown) [Compound 128, HCl salt] and give its measured Dmax at 30 µM.
81

Consider the compound COCc1ccc(CN2CCC(O)(c3ccc4c(c3)C(=O)N(C3CCC(=O)NC3=O)C4=O)CC2)cc1 (stereo not shown) [Compound 61, HCl salt] and give its measured Dmax at 30 µM.
83

New cases:
Consider the compound CC1CC(O)(c2ccc3c(c2)C(=O)N(C2CCC(=O)NC2=O)C3=O)CCN1Cc1ccccc1 (stereo not shown) [Compound 15] and give its measured Dmax at 30 µM.
66

Consider the compound O=C1CCC(N2C(=O)c3ccc(C4(O)CCN(Cc5ccc(-c6nccs6)cc5)CC4)cc3C2=O)C(=O)N1 (stereo not shown) [Compound 147, HCl salt] and give its measured Dmax at 30 µM.
88

Consider the compound CCCN1CCC(O)(c2ccc3c(c2F)C(=O)N(C2CCC(=O)NC2=O)C3=O)CC1 (stereo not shown) [Compound 148, HCl salt] and give its measured Dmax at 30 µM.
73

Consider the compound COc1ccc(CN2CCC(O)(c3ccc4c(c3)C(=O)N(C3CCC(=O)NC3=O)C4=O)CC2)cn1 (stereo not shown) [Compound 72, HCl salt] and give its measured Dmax at 30 µM.
80

----------
target: IKZF2 (Homo sapiens, UniProt Q96SW2+Q9UKS7); construct: endogenous in cells; host or cells: MOLT4 (CRISPR/Cas9 HiBit knock-in at the IKZF2 locus); assay: MOLT4 IKZF2 HiBit assay; type: cell-based; settings: MOLT4 IKZF2 HiBit cells, 6 hours incubation, 10-point dose response from 30 μM
Counter-ions that a name gives are not always drawn.
I'd appreciate it if you marked entries y when DC50 is lower than 0.009 µM and n when it is not.

The examples below pair each entry with its known result.
Determine whether this compound shows DC50 lower than 0.009 µM (ties excluded): CCCN1CCC(O)(c2ccc3c(c2)C(=O)N(C2CCC(=O)NC2=O)C3=O)CC1 (stereo not drawn) [Compound 146, HCl salt]
n

Determine whether this compound shows DC50 lower than 0.009 µM (ties excluded): CC(c1ccc(C(F)(F)F)cc1)N1CCC(O)(c2ccc3c(c2)C(=O)N(C2CCC(=O)NC2=O)C3=O)CC1 (stereo not drawn) [Compound 143, HCl salt]
y

Determine whether this compound shows DC50 lower than 0.009 µM (ties excluded): O=C1CCC(N2C(=O)c3ccc(C4(O)CCN(Cc5cccnc5)CC4)cc3C2=O)C(=O)N1 (stereo not drawn) [Compound 69, formic acid salt]
n

Determine whether this compound shows DC50 lower than 0.009 µM (ties excluded): CCCN1CCC(O)(c2ccc3c(c2F)C(=O)N(C2CCC(=O)NC2=O)C3=O)CC1 (stereo not drawn) [Compound 148, HCl salt]
n

New cases:
Determine whether this compound shows DC50 lower than 0.009 µM (ties excluded): O=C1CCC(N2C(=O)c3ccc(C4(O)CCN(Cc5ccc6scnc6c5)CC4)cc3C2=O)C(=O)N1 (stereo not drawn) [Compound 111, HCl salt]
y

Determine whether this compound shows DC50 lower than 0.009 µM (ties excluded): O=C1CCC(N2C(=O)c3ccc(C4(O)CCN(C(CF)c5ccccc5)CC4)cc3C2=O)C(=O)N1 (stereo not drawn) [Compound 34, formic acid salt]
n

Determine whether this compound shows DC50 lower than 0.009 µM (ties excluded): N#Cc1ccc(CN2CCC(O)(c3ccc4c(c3)C(=O)N(C3CCC(=O)NC3=O)C4=O)CC2)cc1 (stereo not drawn)
y

Determine whether this compound shows DC50 lower than 0.009 µM (ties excluded): O=C1CCC(N2C(=O)c3ccc(C4(O)CCN(Cc5ccncc5)CC4)cc3C2=O)C(=O)N1 (stereo not drawn) [Compound 70, HCl salt]
n

----------
Below, each entry is listed alongside its reported DC50.
molecular target: IKZF2 (Homo sapiens, UniProt Q96SW2+Q9UKS7); construct: endogenous in cells; host or cells: MOLT4 (CRISPR/Cas9 HiBit knock-in at the IKZF2 locus); experiment: MOLT4 IKZF2 HiBit assay; format: cell-based; conditions: MOLT4 IKZF2 HiBit cells, 6 hours incubation, 10-point dose response from 30 μM
Where a name gives a salt, the structure may show the parent alone.
Note: state the figure and append the unit.

Illustrative cases are given below, each with its answer.
Lab note: need DC50 for Cn1c(CN2CCC(O)(c3ccc4c(c3)C(=O)N(C3CCC(=O)NC3=O)C4=O)CC2)cc2ccccc21 (stereo not shown) [Compound 142, formic acid salt] on IKZF2 (Homo sapiens, UniProt Q96SW2+Q9UKS7), anyone have it?
13 nM

Lab note: need DC50 for O=C1CCC(N2C(=O)c3ccc(C4(O)CCN(Cc5ccc6ncn(-c7ccccn7)c(=O)c6c5)CC4)cc3C2=O)C(=O)N1 (stereo not shown) on IKZF2 (Homo sapiens, UniProt Q96SW2+Q9UKS7), anyone have it?
1.5 nM

Lab note: need DC50 for O=C1CCC(N2C(=O)c3ccc(C4(O)CCN(CC(O)c5ccccc5)CC4)cc3C2=O)C(=O)N1 (stereo not shown) on IKZF2 (Homo sapiens, UniProt Q96SW2+Q9UKS7), anyone have it?
22 nM

Lab note: next molecule to report on.
Lab note: need DC50 for Cn1ncc2cc(CN3CCC(O)(c4ccc5c(c4)C(=O)N(C4CCC(=O)NC4=O)C5=O)CC3)ccc21 (stereo not shown) [Compound 145, formic acid salt] on IKZF2 (Homo sapiens, UniProt Q96SW2+Q9UKS7), anyone have it?
4 nM

----------
molecular target: IKZF2 (Homo sapiens, UniProt Q96SW2+Q9UKS7); construct: endogenous in cells; host or cells: MOLT4 (CRISPR/Cas9 HiBit knock-in at the IKZF2 locus); test: MOLT4 IKZF2 HiBit assay; assay type: cell-based; conditions: MOLT-4; MOLT4 IKZF2 HiBit cells, 30 μM, 6 hr (Dmax); read-out: % reduction of IKZF2 @ 30 μM (6 hr)
Where a name gives a salt, the structure may show the parent alone.
I'd appreciate it if you marked entries Satisfied when Dmax at 30 µM is lower than 80% and Not satisfied when it is not.

The examples below pair each entry with its known result.
Determine whether this compound shows Dmax at 30 µM lower than 80% (ties excluded): O=C1CCC(N2C(=O)c3ccc(C4(O)CCN(C(CF)c5ccccc5)CC4)cc3C2=O)C(=O)N1 (centres unmarked) [Compound 34, formic acid salt]
Satisfied

Determine whether this compound shows Dmax at 30 µM lower than 80% (ties excluded): O=C1CCC(N2C(=O)c3ccc(C4CCN(Cc5ccc6ncn(-c7ccccn7)c(=O)c6c5)CC4)cc3C2=O)C(=O)N1 (centres unmarked) [Compound 97]
Satisfied

Determine whether this compound shows Dmax at 30 µM lower than 80% (ties excluded): O=C1CCC(N2C(=O)c3ccc(C4(O)CCN(Cc5ccc6ncn(-c7cccnc7)c(=O)c6c5)CC4)cc3C2=O)C(=O)N1 (centres unmarked) [Compound 99, formic acid salt]
Not satisfied

Determine whether this compound shows Dmax at 30 µM lower than 80% (ties excluded): Cn1ncc2ccc(CN3CCC(O)(c4ccc5c(c4)C(=O)N(C4CCC(=O)NC4=O)C5=O)CC3)cc21 (centres unmarked) [Compound 140, formic acid salt]
Not satisfied

Now look at this entry.
Determine whether this compound shows Dmax at 30 µM lower than 80% (ties excluded): O=C1CCC(N2C(=O)c3ccc(C4(O)CCN(Cc5ccc6[nH]ccc6c5)CC4)cc3C2=O)C(=O)N1 (centres unmarked) [Compound 144, formic acid salt]
Not satisfied

Data provenance: patent US20240239785A1
